measured-target: HIV Env of isolate CNE53 (clade BC) (HIV)
measurement-protocol: cell-based or functional assay
recorded-metric: IC50 (µg/ml) with constrains (µg/mL)
Give the value in µg/mL but do not write µg/mL after it.

Example entries begin here.
ePGDM13 (antibody, V domains shown) VH: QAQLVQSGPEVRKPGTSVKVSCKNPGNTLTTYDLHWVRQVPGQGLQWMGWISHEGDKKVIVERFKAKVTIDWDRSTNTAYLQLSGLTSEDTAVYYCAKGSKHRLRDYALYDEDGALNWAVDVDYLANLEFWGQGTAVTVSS VL: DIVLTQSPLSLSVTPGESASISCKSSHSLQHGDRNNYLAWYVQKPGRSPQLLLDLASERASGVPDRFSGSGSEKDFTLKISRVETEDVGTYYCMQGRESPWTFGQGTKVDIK | 0.015
ePGDM5 (antibody, V domains shown) VH: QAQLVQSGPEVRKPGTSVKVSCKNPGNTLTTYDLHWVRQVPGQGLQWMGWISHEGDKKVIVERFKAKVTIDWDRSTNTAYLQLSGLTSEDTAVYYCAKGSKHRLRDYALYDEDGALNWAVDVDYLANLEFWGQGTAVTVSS VL: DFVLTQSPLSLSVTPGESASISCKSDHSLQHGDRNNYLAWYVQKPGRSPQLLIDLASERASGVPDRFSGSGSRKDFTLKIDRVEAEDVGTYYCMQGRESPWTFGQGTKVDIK | 0.02
ePGDM9 (antibody, V domains shown) VH: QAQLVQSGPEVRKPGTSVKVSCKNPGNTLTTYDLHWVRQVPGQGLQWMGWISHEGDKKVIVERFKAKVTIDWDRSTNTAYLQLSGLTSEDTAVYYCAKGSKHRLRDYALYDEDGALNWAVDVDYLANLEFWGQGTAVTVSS VL: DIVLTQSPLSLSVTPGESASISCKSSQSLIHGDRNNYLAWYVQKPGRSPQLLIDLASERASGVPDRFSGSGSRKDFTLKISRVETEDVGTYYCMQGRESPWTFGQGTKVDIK | 0.007

Task item: Reported IC50 (µg/ml) with constrains, binder PGDM1400 (antibody, V domains shown) VH: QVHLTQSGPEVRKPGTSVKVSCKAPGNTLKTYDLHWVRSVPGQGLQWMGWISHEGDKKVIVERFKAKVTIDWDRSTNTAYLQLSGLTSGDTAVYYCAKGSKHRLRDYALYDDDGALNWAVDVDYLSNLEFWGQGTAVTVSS VL: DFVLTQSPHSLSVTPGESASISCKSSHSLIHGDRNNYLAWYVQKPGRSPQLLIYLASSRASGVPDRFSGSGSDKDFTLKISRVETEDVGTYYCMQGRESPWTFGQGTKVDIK : ____
Reply: 0.026

Where do the numbers come from? From patent US20230134571A1.
